Exercise: state measured Enzyme Activity Endpoint Assay: Fc for each of the proteins provided.
molecular target: pooled human IgG (human IgG1,2,3 and 4)
State the value with its unit after it.

Prompt line: Which Enzyme Activity Endpoint Assay: Fc value is on record for PRT-99 (protein) MANQEIRYSEVTPYHVTSVWTKGVTPPAKFTQGEDVFHAPYVANQGWYDITKTFNGKDDLLCGAATAGNMLHWWFDQNKEKIEAYLKKHPDKQKIMFGDQELLDVRKVINTKGDQTNSELFNYFRDKAFPGLSARRIGVMPDLVLDMFINGYYLNVYKTQTTDVNRTYQEKDRRGGIFDAVFTRGDQSKLLTSRHDFKEKNLKEISDLIKKELTEGKALGLSHTYANVRINHVINLWGADFDSNGNLKAIYVTDSDSNASIGMKKYFVGVNSAGKVAISAKEIKEDNIGAQVLGLFTLSTGQDIWNQTN ?
Response line: 152 ng/µL

Prompt line: Which Enzyme Activity Endpoint Assay: Fc value is on record for PRT-180 (protein) MANQEIRYSEVTPYHVTSVWTKGVTPPANFTQGEDVFHAPYVANQGWYDITKTFNGKDDLLCGAATAGNMLHWWFDQNKDQIKRYLEEHPEKQKINFNGEQMFDVKEAIDTKNHQLDSKLFEYFKEKAFPYLSTKHLGVFPDHVIDMFINGYRLSLTNTQSTDVNEGSKDPRGGIFDAVFTRGDQSKLLTSRHDFKEKNLKEISDLIKKELTEGKALGLSHTYANVRINHVINLWGADFDSNGNLKAIYVTDSDSNASIGMKKYFVGVNSAGKVAISAKEIKEDNIGAQVLGLFTLSTGQDSWNQTN ?
Response line: 197 ng/µL

Prompt line: Which Enzyme Activity Endpoint Assay: Fc value is on record for PRT-110 (protein) MRNATEAYAKEVPHQITSVWTKGVTPPTPEQFRYNNEDVFHAPYTAHQGWYDITKTFDGKDNLLCGAATAGNMLHWWFDQNKTEIEAYLSKHPEKQKIIFNNQELFDLKAAIDTKDSQTNSALFNYFRDKAFPNLSARQLGVMPDLVLDMFINGYYLNVFKTQSTDVNRPYQDKDKRGGIFDAVFTRGDQTTLLTARHDLKNKTLNDISTIIKQELTEGRALALSHTYANVSISHVINLWGADFNAEGNLEAIYVTDSDSNASIGMKKYFVGVNASGKVAISAKKIEGENIGAQVLGLFTLSSGKDIWQKLS ?
Response line: 136 ng/µL

Prompt line: Which Enzyme Activity Endpoint Assay: Fc value is on record for PRT-175 (protein) MANQEIRYSEVTPYHITSVWTKGVTPPTDFTQGEDVFHAPYKANQGWYDITKTFNGKDDLLCGAATAGNMLHWWFDQNKTQIERYLKKHPEKQKINFNGEQMFDVKEAIDTKNSQTNSELFNYFKEKAFPYLSTKHLGVFPDHVIDMFINGYRLSLTNHGPTPVKRQSKDPRGGIFDAVFTRGDQSKLLTSRHDFKEKTLNEISQLIKQELTEGKALGLSHTYANVRINHVINLWGADFDAEGNLEAIYVTDSDSNASIGMKKYFVGVNSAGKVAISAKEIKEDNIGAQVLGLFTLSTGKDSWEKTN ?
Response line: 147 ng/µL

Prompt line: Which Enzyme Activity Endpoint Assay: Fc value is on record for PRT-506 (protein) MITSVWTKGVTPPTDFIKGEDVFHAPYKAGQGWYDITKTFNGKDDLLCGAATAGNMLHWWFDQNKEEIEAYLKKHPEKQKIMFGDQELLDVRKVINTKDSQTNSALFNYFKDKAFPNLSARRLGVMPDLVLDMFINGYYLNVYKTQTTDVNRTYQTKDRRGGIFDAVFTRGDQSKLLTERHDFKEKTLKEISDLIKQELTEGKALGLSHTYANVRINHVINLWGADFDSNGNLEAIYVTDSDSNASIGMKKYFVGVNSAGKVAISAKEIKEDNIGAQVLGLFTLSTGQDIWNQTNLEHHHHHH ?
Response line: 453 ng/µL
